Study Target: BRD9A (Homo sapiens)
Sequence (Q9H8M2 whole entry): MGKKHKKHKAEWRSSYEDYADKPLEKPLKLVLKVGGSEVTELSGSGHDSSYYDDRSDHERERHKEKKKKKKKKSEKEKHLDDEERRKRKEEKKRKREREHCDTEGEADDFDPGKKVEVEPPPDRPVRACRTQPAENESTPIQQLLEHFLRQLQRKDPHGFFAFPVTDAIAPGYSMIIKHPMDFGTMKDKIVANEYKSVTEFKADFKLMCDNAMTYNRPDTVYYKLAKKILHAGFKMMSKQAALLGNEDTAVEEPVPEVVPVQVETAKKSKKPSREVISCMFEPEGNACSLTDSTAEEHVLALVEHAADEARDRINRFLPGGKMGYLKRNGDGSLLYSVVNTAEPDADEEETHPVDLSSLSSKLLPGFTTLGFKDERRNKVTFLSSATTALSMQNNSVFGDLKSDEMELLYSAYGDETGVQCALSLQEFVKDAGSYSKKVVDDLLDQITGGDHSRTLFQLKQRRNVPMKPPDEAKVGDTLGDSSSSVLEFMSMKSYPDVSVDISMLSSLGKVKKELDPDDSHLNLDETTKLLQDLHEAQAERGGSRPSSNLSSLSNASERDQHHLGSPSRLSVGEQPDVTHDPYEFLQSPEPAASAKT
Catalogue of pIC50 readings, one per entry.
Scale explanation: pIC50 corresponds to minus log10 of a concentration expressed in moles per litre.

INSERT INTO assay_data (smiles_input, study_target, observed_value) VALUES
  ('Cc1cc(=O)n(C)c2cc(NS(C)(=O)=O)ccc12', 'BRD9A (Homo sapiens)', 5.24);

The record that follows has no pIC50 shown yet.
Query :: Provide BRD9A (Homo sapiens) pIC50 reading for CC(=O)Nc1ccc2c(C)cc(=O)n(C)c2c1 .
Result :: 4.90

###

# Kd values compiled below
Study Target: PCAF bromodomain (Homo sapiens, UniProt Q92831)
Sequence (Q92831 723-827 limits assumed): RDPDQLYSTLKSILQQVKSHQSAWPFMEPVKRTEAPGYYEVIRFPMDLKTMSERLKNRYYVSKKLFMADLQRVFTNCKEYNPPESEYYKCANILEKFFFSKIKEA
Experiment Description: SPR (Biacore) of TINS fragment hits on immobilized PCAF
Details: SPR, 20 °C, six concentrations, aqueous buffer without DMSO
Give me the value, and tack the unit on after it.

Query :: Could you please provide reported Kd for NC1CCN(C(=O)C2CC2)CC1 [compound 10] ? Thanks!
Result :: 6910 µM

Query :: Specify reported Kd for the compound shown: Cc1nn(CCO)c2c1C(=O)CCC2 [compound 11]
Result :: 488 µM

Query :: Give the reported Kd for this compound. Cc1c(N)c(=O)n(-c2ccccc2)n1C [compound 9]
Result :: 2680 µM
